Where these numbers come from: PubChem BioAssay (NCI)

# System: SK-MEL-2 melanoma
# PROTOCOL SUMMARY: NCI tumour cell line growth inhibition, 48 h; in the data active = GI50 below about 0.43 µM; inactive = the rest
Outcome codes: active, inactive

> print(dat)
                                   molecule  assigned.label
1  O=C1c2ccccc2-c2c1c1ccc([N+](=O)[O-])cc1c(=O)n2CCCn1ccnc1        inactive
2  CCC1(N)C(=O)OCc2c1cc1n(c2=O)Cc2cc3ccccc3nc2-1 (stereo not given)        inactive
3  CC(=Nc1ccccc1)C1=C(O)C(Cc2ccc(F)cc2)NC1=O (stereo not given)          active
4  COc1c(N2CCN(CN3C(=O)C(=O)c4ccccc43)C(C)C2)c(F)cc2c(=O)c(C(=O)O)cn(C3CC3)c12 (stereo not given)        inactive
5  C[C@@H]1OC(=O)NN=C1c1ccc(-c2ccc(F)cc2)c(C(F)(F)F)c1          active

###

Overview of recorded TGI for various compounds
# Test system: SF-295 CNS
# PROTOCOL SUMMARY: NCI tumour cell line growth inhibition, 48 h

COMPOUND	TGI
c1ccc(N2N=C3N(c4ccccc4)C2N3c2ccccc2)cc1	> 100 µM
COC(=O)C1SC[C@H]2C(=O)N(c3ccccc3)C(=O)N12 (some centres undefined)	> 100 µM
COCC(=O)NC/C=C/c1ccc2ncnc(Nc3ccc(Oc4ccc(C)nc4)c(C)c3)c2c1	38.1 µM
COC1C(O)CC(OC2CC(OC3CC(O[C@@H]4C(=O)c5c(cc6cc(OC7CC(OC8CC(O)C(O)C(C)O8)C(O)C(C)O7)c(C)c(O)c6c5O)CC4[C@H](OC)[C@@H](O)C(C)=O)OC(C)C3O)OC(C)C2O)OC1C (some centres undefined)	> 33.3 µM
NS(=O)(=O)c1nnc(NC(=O)/C=C/C(=O)O)s1	> 100 µM
CCCCCCC/C=C1\CCC(CN(C)C)C1=O (centres undefined)	30.1 µM
CCOC1=NC(C(F)(F)F)(C(F)(F)F)N=C(N2CCCCC2)O1	> 100 µM
C[C@H](C(O)CC(=O)C(C)(C)O)[C@H]1CC[C@@]2(C)[C@@H]3CC[C@H]4C(C)(C)[C@@H](OC5OC(COC6OC(CO)C(O)C(O)C6O)C(O)C(O)C5O)CC[C@]4(C)C3=CC[C@]12C (some centres undefined)	> 100 µM
CC(=O)OC1(C#N)CC2OC1C1N=NN(C(=O)OC(C)(C)C)C21 (centres undefined)	> 100 µM

###

# Test system: OVCAR-5 ovarian
# PROTOCOL SUMMARY: NCI tumour cell line growth inhibition, 48 h

COMPOUND	TGI
O=C1CN(c2ccccc2)C(=O)CN1CCN1CC(=O)N(c2ccccc2)CC1=O	> 100 µM
Cc1cc(C)c(O)c(CNCCCNCc2cc(C)cc(C)c2O)c1	19.5 µM
N#CC(C(=O)O)C(c1c(Cl)cccc1Cl)C(C#N)C(=O)O (stereo not given)	> 100 µM
O=C1CCC(N2C(=O)c3cccc(NCCOCCOCCNC(=O)c4cc5c(o4)C(=O)c4ccccc4C5=O)c3C2=O)C(=O)N1 (stereo not given)	3.07 µM
O=C1CSC(c2cccc(Oc3ccccc3)c2)N1c1cccc(Cl)c1Cl (stereo not given)	> 100 µM
CN[C@H]1CC[C@]23C[C@]24CC[C@]2(C)[C@@H]([C@H](C)N(C)C)CC[C@@]2(C)[C@@H]4CC[C@H]3C1(C)C	60.7 µM
CCCCn1c(C)c2c(c1C)C(=O)N(CCN1CCN(c3ccccc3Cl)CC1)C2=O	> 100 µM
C[C@H](C(O)CC(=O)C(C)(C)O)[C@H]1CC[C@@]2(C)[C@@H]3CC[C@H]4C(C)(C)[C@@H](OC5OC(COC6OC(CO)C(O)C(O)C6O)C(O)C(O)C5O)CC[C@]4(C)C3=CC[C@]12C (stereo not given in full)	> 100 µM
COCC(=O)NC/C=C/c1ccc2ncnc(Nc3ccc(Oc4ccc(C)nc4)c(C)c3)c2c1	35.9 µM
CC1(C)OC2COC(c3[nH]nc4c(=O)[nH]c(=O)[nH]c34)C2O1 (stereo not given)	> 100 µM
CN(/N=C/c1ccccc1C(=O)O)C1=NCCCCN1	> 100 µM
NC(Cc1c[nH]c2cc(F)ccc12)C(=O)O (stereo not given)	> 2500 µM
Cc1c(C#N)c(N)n(C2OC(CO)C(O)C(O)C2O)c(=S)c1C#N (stereo not given)	> 100 µM
CCOc1ccc(N=Cc2ccc3ccccc3n2)cc1	> 100 µM
Nc1nc(Cl)c(C=O)c(NCC2(CO)CCC2)n1	> 100 µM
COc1c2occc2cc2ccc(=O)oc12	> 100 µM
CC1(C)/C(=N\Nc2ccc([N+](=O)[O-])cc2[N+](=O)[O-])C2CCC1C2 (stereo not given)	> 100 µM
CCN(CC)c1ccc(/C=N/NC(=O)c2ccccc2Nc2ccnc(C(F)(F)F)c2)c(O)c1	> 100 µM
COc1ccc2c(c1)C(=O)[C@@](Nc1ccc(C=O)cc1)(OC)[C@@](OC)(c1ccc([N+](=O)[O-])cc1)O2	> 10 µM
COC(=O)C1=C(O)c2cc3c(cc2[C@H](c2cc(OC)c(OC)c(OC)c2)C1)OCO3	> 100 µM
COc1ccc2c(c1)OC1c3ccccc3OCC21 (stereo not given)	> 100 µM
Clc1nc(Nc2nc3ccccc3[nH]2)nc(Cl)c1-c1ccccc1	59.6 µM
C=C(C)[C@@H]1CC[C@]2(CN)CC[C@]3(C)[C@H](CC[C@@H]4[C@@]5(C)CCC(N)[C@@](C)(CO)[C@@H]5CC[C@]43C)[C@@H]12 (stereo not given in full)	3.15 µM
Fc1ccc2c(c1)cc1ccc3cccc4ccc2c1c34	> 100 µM
Clc1nc(-c2ccccc2)nc(Cl)c1Cl	30.4 µM
CC(=Nc1ccccc1)C1=C(O)C(Cc2ccc(F)cc2)NC1=O (stereo not given)	> 100 µM
Cc1ccc(-n2c3c(c4c(CN)c(O)ccc42)CCc2ccccc2C3=O)cc1	30.4 µM
O=C(N[C@@H](Cc1ccccc1)B(O)O)[C@H](Cc1cccc2ccccc12)NC(=O)N1CCOCC1	0.0155 µM
CCN(CCCl)c1cc(CN(C)C)cc(NC(=O)c2ccc(C(=O)Nc3ccccc3)cc2)c1	4.5 µM
C[C@@H]1OC(=O)NN=C1c1ccc(-c2ccc(F)cc2)c(C(F)(F)F)c1	21.6 µM
COc1ccc(S(=O)(=O)Nc2ccc(-c3csc(N4C(=O)/C(=C/c5cccs5)N=C4c4ccccc4)n3)cc2)cc1Cl	> 100 µM
COc1cc(/C=C2\Cc3ccccc3C2=O)cc(OC)c1OC	> 100 µM
Brc1ccc(C2CC3(c4ccccc4)ON=C(c4ccccc4)N3c3ccccc3S2)cc1 (stereo not given)	> 100 µM
COc1ccc(C[C@H]2NC[C@H](O)[C@H]2OC(C)=O)cc1	14.5 µM
O=C(COC(=O)c1cccc2c(=O)c3ccccc3[nH]c12)Nc1ccc(S(=O)(=O)Nc2ncccn2)cc1	> 100 µM
CCN(CC)CCC(=O)N1C/C(=C/c2ccccc2)C(=O)/C(=C\c2ccccc2)C1	9.76 µM
C=COC(=O)N1C2CCCC(Cl)(C(C)=O)C1CC2 (stereo not given)	> 100 µM
O=C(NNC(=O)c1c(Cl)c(Cl)c(Cl)c(Cl)c1-c1nc2ccccc2[nH]1)c1ccc(Cl)cc1	> 100 µM
Cn1cc2ccccc2c1-c1nc(F)nc(Nc2ccc(N)cc2)n1	61.9 µM
CSS(C)(=O)=O	49.1 µM
